System: Human immunodeficiency virus 1
Assay procedure: Antiviral activity against HIV-1 infected in human NCK45 cells assessed as inhibition of infection after 48 hrs by dual-reporter gene assay
Assay type: functional, organism-based
Condition context: Human immunodeficiency virus 1, NCK45, 48 h
pEC50: −log10 of the molar value.
Test readout: pEC50

CCNC(=O)c1cc(CNc2c(C#N)c(C)nn2-c2ccccc2)cc(Cl)c1O
< 6.00
CCC(=O)Nc1cc(CNc2c(C#N)c(CC)nn2-c2ccccc2)cc(Cl)c1O
< 5.00

Now turn to the next molecule.
Request: Quick check: pEC50 of CCC(=O)Nc1cc(/C=C/c2c(C#N)c(C)nn2-c2ccccc2)cc(Cl)c1O ?
Response: 6.36
